target: recombinant human His6-USP1/His6-UAF1 composite protein (Homo sapiens (Human)); test: USP1 enzyme activity detection (Ub-Rho fluorescence); conditions: USP1/UAF1, Ub-Rho substrate 300 nM, 1 hour pre-incubation; read-out: IC50 (enzymatic inhibition of USP1)
Sequence (O94782 whole entry): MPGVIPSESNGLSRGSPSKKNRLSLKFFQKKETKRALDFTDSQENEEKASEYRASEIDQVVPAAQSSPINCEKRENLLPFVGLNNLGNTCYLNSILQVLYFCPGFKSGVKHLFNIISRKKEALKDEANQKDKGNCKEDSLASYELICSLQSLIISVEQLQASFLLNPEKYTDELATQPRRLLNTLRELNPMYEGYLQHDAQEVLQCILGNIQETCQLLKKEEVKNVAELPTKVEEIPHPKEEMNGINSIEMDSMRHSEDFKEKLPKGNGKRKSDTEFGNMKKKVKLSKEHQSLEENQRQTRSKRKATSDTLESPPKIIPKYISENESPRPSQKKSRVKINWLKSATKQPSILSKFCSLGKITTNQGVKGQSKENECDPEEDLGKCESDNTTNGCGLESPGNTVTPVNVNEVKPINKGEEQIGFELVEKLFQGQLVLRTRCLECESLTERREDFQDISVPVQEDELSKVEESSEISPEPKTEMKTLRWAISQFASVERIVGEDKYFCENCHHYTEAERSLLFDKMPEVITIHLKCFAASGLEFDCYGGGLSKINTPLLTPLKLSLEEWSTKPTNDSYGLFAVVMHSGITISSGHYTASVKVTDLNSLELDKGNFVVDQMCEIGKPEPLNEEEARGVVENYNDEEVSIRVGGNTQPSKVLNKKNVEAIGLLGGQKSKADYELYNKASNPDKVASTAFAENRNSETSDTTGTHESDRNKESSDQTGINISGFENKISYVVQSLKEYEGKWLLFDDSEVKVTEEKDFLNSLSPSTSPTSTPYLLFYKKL
Sequence (Q8TAF3 whole entry partner): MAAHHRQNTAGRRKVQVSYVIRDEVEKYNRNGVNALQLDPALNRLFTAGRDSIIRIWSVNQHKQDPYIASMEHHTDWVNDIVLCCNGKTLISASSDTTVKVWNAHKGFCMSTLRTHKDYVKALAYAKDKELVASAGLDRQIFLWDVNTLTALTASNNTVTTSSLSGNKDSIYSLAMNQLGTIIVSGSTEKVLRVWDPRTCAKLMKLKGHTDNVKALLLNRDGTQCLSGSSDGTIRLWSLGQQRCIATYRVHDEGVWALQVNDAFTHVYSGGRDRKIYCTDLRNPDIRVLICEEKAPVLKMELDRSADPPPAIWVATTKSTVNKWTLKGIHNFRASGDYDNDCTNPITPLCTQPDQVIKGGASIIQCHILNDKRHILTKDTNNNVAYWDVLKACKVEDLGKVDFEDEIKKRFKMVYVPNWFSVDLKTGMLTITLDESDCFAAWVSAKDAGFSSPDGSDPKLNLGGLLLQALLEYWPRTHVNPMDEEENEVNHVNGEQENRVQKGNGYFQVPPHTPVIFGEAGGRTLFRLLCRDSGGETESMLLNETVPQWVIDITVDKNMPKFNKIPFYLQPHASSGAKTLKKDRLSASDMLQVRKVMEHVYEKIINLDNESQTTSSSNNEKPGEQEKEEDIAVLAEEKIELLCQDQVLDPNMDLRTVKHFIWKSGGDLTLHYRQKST
readout: IC50 (nM)

{"molecule": "COc1ncnc(C2CC2)c1-c1ncc2c3cn(C)nc3n(Cc3ccc(-c4nc(C(F)(F)F)c5ccccn45)cc3)c2n1", "IC50, nM": 3.5}

[A] COc1ncnc(C2CC2)c1-c1ncc2c3cccc(F)c3n(Cc3ccc(-c4nc(C(F)(F)F)cn4C(C)C)cc3)c2n1
[B] COc1ncnc(C2CC2)c1-c1ncc2c3cccnc3n(Cc3ccc4c(c3)Cn3cc(C(F)(F)F)nc3-4)c2n1
Name the one with the greater IC50 value, either A or B as given. Use the label to indicate which entry you chose. B
(B: 42.9 nM, A: 6.07 nM)

[A] COc1ncnc(C2CC2)c1-c1ncc2c3ccc(C#N)cc3n(Cc3ccc4c(c3)Cn3cc(C(F)(F)F)nc3-4)c2n1
[B] COc1ncnc(C2CC2)c1-c1ncc2c3ccc(C(F)(F)F)cc3n(Cc3ccc(-c4nc(C(F)(F)F)cn4C(C)C)cc3)c2n1
Name the one with the greater IC50 value, either A or B as given. Use the label to indicate which entry you chose. A
(A: 191 nM, B: 21 nM)

[I] COc1ncnc(C2CC2)c1-c1ncc2c3ccncc3n(Cc3ccc(-c4nc(C(F)(F)F)c(Br)n4C)cc3)c2n1
[II] COc1ncnc(C2CC2)c1-c1ncc2c3ccncc3n(Cc3ccc4c(c3)CCn3cc(C(F)(F)F)nc3-4)c2n1
Min IC50? I | II Use the label to indicate which entry you chose. I

----------
test system: NCI-H1693 cells; assay: USP1 CTG test: NCI-H1693 cell killing experiment; type: cell-based; settings: Homo sapiens, 144 h, 6 days, CTG detection, read-out: IC50 (inhibition of NCI-H1693 cells)
Quick list: IC50 per entry.
Report only the number, with the unit nM understood.

These recorded examples may help you get a feel for the data.
{"compound": "COc1ncnc(C2CC2)c1-c1ncc2c3cn(C)nc3n(Cc3ccc(-c4nc(C(F)(F)F)cn4C(C)C)cc3)c2n1", "measuredOn": "NCI-H1693 cells", "numericValue": 9.2}
{"compound": "COc1ncnc(C2CC2)c1-c1ncc2c(n1)n(Cc1ccc(-c3nc(C(F)(F)F)cn3C)cc1)c1nncn21 [Comparative compound 2, reference compound]", "measuredOn": "NCI-H1693 cells", "numericValue": 174}

// moving on: another record for IC50
Give the measured IC50 of COc1ncnc(C2CC2)c1-c1ncc2c(n1)n(Cc1ccc(-c3nc(C(F)(F)F)cn3C)cc1)c1nccn21 [Comparative compound 1, reference compound] . 53.7

----------
molecular target: recombinant human His6-USP1/His6-UAF1 composite protein (Homo sapiens (Human)); test: USP1 enzyme activity detection (Ub-Rho fluorescence); details: USP1/UAF1, Ub-Rho substrate 300 nM, 1 hour pre-incubation; read-out: IC50 (enzymatic inhibition of USP1)
readout: IC50 (nM)

{"molecule": "COc1cc(Cn2c3ccccc3c3cnc(-c4c(OC)ncnc4C4CC4)nc32)cc(F)c1-c1nc(C(F)(F)F)cn1C(C)C [Compound 19]", "readout": "IC50", "valueUnits": "nM", "numericValue": 8.25}
{"molecule": "COc1ncnc(C2CC2)c1-c1ncc2c3cn(C)nc3n(Cc3ccc(-c4nc(C(F)(F)F)cn4C)c(F)c3)c2n1 [Compound 118]", "readout": "IC50", "valueUnits": "nM", "numericValue": 3.57}
{"molecule": "COc1ncnc(C2CC2)c1-c1ncc2c3cn(C)nc3n(Cc3ccc(-c4nc(C(F)(F)F)c5n4CCC5)cc3)c2n1 [Compound 114]", "readout": "IC50", "valueUnits": "nM", "numericValue": 1.89}
{"molecule": "COc1ncnc(C2CC2)c1-c1ncc2c3ccc(F)nc3n(Cc3ccc(-c4nc(C(F)(F)F)cn4C)cc3)c2n1 [Compound 73]", "readout": "IC50", "valueUnits": "nM", "numericValue": 4.9}
{"molecule": "COc1ncnc(C2CC2)c1-c1ncc2c3ccncc3n(Cc3ccc4c(c3)CCCn3cc(C(F)(F)F)nc3-4)c2n1 [Compound 61]", "readout": "IC50", "valueUnits": "nM", "numericValue": 3.14}

[P] COC(=O)c1ccc2c3cnc(-c4c(OC)ncnc4C4CC4)nc3n(Cc3ccc(-c4nc(C(F)(F)F)cn4C)cc3)c2c1 [Compound 42]
[Q] CC(C)n1ncc(Cl)c1-c1ncc2c3ccccc3n(Cc3ccc(-c4nc(C(F)(F)F)cn4C)cc3)c2n1 [Compound 20]
[R] COc1ncnc(C2CC2)c1-c1ncc2c3cc(S(C)(=O)=O)ccc3n(Cc3ccc(-c4nc(C(F)(F)F)cn4C)cc3)c2n1 [Compound 37]
[S] COc1ncnc(C2CC2)c1-c1ncc2c3c(C(N)=O)cccc3n(Cc3ccc(-c4nc(C(F)(F)F)cn4C)cc3)c2n1 [Compound 47]
Descending sort on IC50 required. Put the labels in the order asked and list them. R, P, S, Q
(R: 58 nM, P: 30.4 nM, S: 5.26 nM, Q: 3.26 nM)

[a] COc1ncnc(C2CC2)c1-c1ncc2c3ncncc3n(Cc3ccc4c(c3)CCCn3cc(C(F)(F)F)nc3-4)c2n1 [Compound 112]
[b] COc1ncnc(C2CC2)c1-c1ncc2c3ccc(C#N)cc3n(Cc3ccc(-c4nc(C(F)(F)F)c5ccccn45)cc3)c2n1 [Compound 126]
[c] COc1ncnc(C2CC2)c1-c1ncc2c3ccc(C#N)cc3n(Cc3cc(O)c4c(c3)OCCn3cc(C(F)(F)F)nc3-4)c2n1 [Compound 77]
// ascending sort on recorded IC50 Put the labels in the order asked and list them. b, a, c

Recorded values, source patent US20250368667A1.
